Where do these numbers come from? They come from patent US20160030416A1.

ASSAY_OVERVIEW: Pharmacokinetics, single oral gavage, CD-1 mice
Type: in vivo, female CD-1 mice
TEST_SETTINGS: female, CD-1, mouse, plasma, 250 mg/kg
OUTCOME_MEASURE: AUC(0-inf)
Give your result as the value with the unit written after it.

Item: Cc1cc(Cl)c(COc2cccc3c(-n4cc(F)cn4)cc(C)nc23)c(Cn2cccc(C#N)c2=O)n1 [CFMQ] | AUC(0-inf): 24500 ng·h/mL

###

ASSAY_OVERVIEW: Pharmacokinetics, single oral gavage, 2 formulations, Wistar and Sprague-Dawley rats
Assay type: in vivo
TEST_SETTINGS: female, Wistar, rat, plasma, po, 75 mg/kg, Formulation 1, Wistar (Female)
Method: Pharmacokinetics and gender differences were evaluated with 2 different formulations of CFMQ (HGT3711) in 2 different types of rat models. These attributes were investigated in a single oral gavage study. Male and female Wistar rats (n=3 per dose group) received CFMQ (HGT3711) at 15, […], and or 150 mg/kg. […] The two vehicle formulations evaluated were formulation 1: 10% N-methyl pyrrolidone (NMP): 10% Ethanol: 30% polyethylene glycol (PEG400): 50% […] […]
OUTCOME_MEASURE: AUC(0-t) (µg·h/mL)
Respond numerically; units are µg·h/mL and should not be typed.

Item: `Cc1cc(Cl)c(COc2cccc3c(-n4cc(F)cn4)cc(C)nc23)c(Cn2cccc(C#N)c2=O)n1` | AUC(0-t): 11.1

###

ASSAY_OVERVIEW: Pharmacokinetics, single oral gavage, 2 formulations, Wistar and Sprague-Dawley rats
Assay type: in vivo
TEST_SETTINGS: male, Sprague-Dawley, rat, plasma, po, 75 mg/kg, Formulation 2, S-D (Male)
OUTCOME_MEASURE: Cmax (ng/mL)
Respond numerically; units are ng/mL and should not be typed.

Item: `Cc1cc(Cl)c(COc2cccc3c(-n4cc(F)cn4)cc(C)nc23)c(Cn2cccc(C#N)c2=O)n1` | Cmax: 191

###

ASSAY_OVERVIEW: Plasma kinetics, intravenous, beagle dogs
Assay type: in vivo, female beagle dogs
TEST_SETTINGS: female, beagle, dog, plasma; IV 1 mg/kg, 0.083 hr; read-out: Average Concentration of HGT3711
OUTCOME_MEASURE: concentration at 0.083 hr

Item: Cc1cc(Cl)c(COc2cccc3c(-n4cc(F)cn4)cc(C)nc23)c(Cn2cccc(C#N)c2=O)n1 [CFMQ] | concentration at 0.083 hr: 1840 ng/mL

###

ASSAY_OVERVIEW: Plasma kinetics, intravenous, Sprague-Dawley rats
Format: in vivo, female Sprague-Dawley rats
TEST_SETTINGS: female, Sprague-Dawley, rat, plasma; IV 1 mg/kg, 4.0 hr; read-out: Average Concentration of HGT3711
OUTCOME_MEASURE: concentration at 4 hr (µg/mL)
Respond numerically; units are µg/mL and should not be typed.

Item: Cc1cc(Cl)c(COc2cccc3c(-n4cc(F)cn4)cc(C)nc23)c(Cn2cccc(C#N)c2=O)n1 [CFMQ] | concentration at 4 hr: 0.113

###

ASSAY_OVERVIEW: Solubility of CFMQ in vehicles
Format: physicochemical
TEST_SETTINGS: organic solvent or mixture; Acetic acid, glacial
OUTCOME_MEASURE: solubility
Give your result as the value with the unit written after it.

Item: `Cc1cc(Cl)c(COc2cccc3c(-n4cc(F)cn4)cc(C)nc23)c(Cn2cccc(C#N)c2=O)n1` | solubility: 19.9 mg/mL

###

ASSAY_OVERVIEW: Pharmacokinetics, single oral gavage, 2 formulations, Wistar and Sprague-Dawley rats
Format: in vivo
TEST_SETTINGS: female, Wistar, rat, plasma, po, 15 mg/kg, Formulation 1, Wistar (Female)
OUTCOME_MEASURE: Cmax (ng/mL)
Respond numerically; units are ng/mL and should not be typed.

Item: `Cc1cc(Cl)c(COc2cccc3c(-n4cc(F)cn4)cc(C)nc23)c(Cn2cccc(C#N)c2=O)n1` | Cmax: 1140

###

ASSAY_OVERVIEW: Pharmacokinetics, single oral gavage, 2 formulations, Wistar and Sprague-Dawley rats
Assay type: in vivo
TEST_SETTINGS: female, Wistar, rat, plasma, po, 15 mg/kg, Formulation 2, Wistar (Female)
OUTCOME_MEASURE: AUC(0-t) (µg·h/mL)
Respond numerically; units are µg·h/mL and should not be typed.

Item: Cc1cc(Cl)c(COc2cccc3c(-n4cc(F)cn4)cc(C)nc23)c(Cn2cccc(C#N)c2=O)n1 [CFMQ] | AUC(0-t): 5.21

###

ASSAY_OVERVIEW: Pharmacokinetics, single oral gavage, Yucatan mini-pig
Type: in vivo, female Yucatan Miniature Swine
TEST_SETTINGS: female, Yucatan, pig (minipig), plasma; PO 10 mg/kg, 0 hr; read-out: Average Concentration of HGT3711
OUTCOME_MEASURE: concentration at 0 hr

Item: `Cc1cc(Cl)c(COc2cccc3c(-n4cc(F)cn4)cc(C)nc23)c(Cn2cccc(C#N)c2=O)n1` | concentration at 0 hr: 0 ng/mL

###

ASSAY_OVERVIEW: Plasma kinetics, intravenous, CD-1 mice
Format: in vivo, female CD-1 mice
TEST_SETTINGS: female, CD-1, mouse, plasma; IV 1 mg/kg
OUTCOME_MEASURE: AUC(0-inf) (ng·h/mL)
Respond numerically; units are ng·h/mL and should not be typed.

Item: `Cc1cc(Cl)c(COc2cccc3c(-n4cc(F)cn4)cc(C)nc23)c(Cn2cccc(C#N)c2=O)n1` | AUC(0-inf): 70.9

###

ASSAY_OVERVIEW: Pharmacokinetics, single oral gavage, 2 formulations, Wistar and Sprague-Dawley rats
Assay type: in vivo
TEST_SETTINGS: female, Wistar, rat, plasma, po, 75 mg/kg, Formulation 2, Wistar (Female)
OUTCOME_MEASURE: Tmax (min)
Respond numerically; units are min and should not be typed.

Item: `Cc1cc(Cl)c(COc2cccc3c(-n4cc(F)cn4)cc(C)nc23)c(Cn2cccc(C#N)c2=O)n1` | Tmax: 45

###

ASSAY_OVERVIEW: Pharmacokinetics, single oral gavage, 2 formulations, Wistar and Sprague-Dawley rats
Type: in vivo
TEST_SETTINGS: female, Wistar, rat, plasma, po, 15 mg/kg, Formulation 2, Wistar (Female)
OUTCOME_MEASURE: AUC(0-inf)
Give your result as the value with the unit written after it.

Item: `Cc1cc(Cl)c(COc2cccc3c(-n4cc(F)cn4)cc(C)nc23)c(Cn2cccc(C#N)c2=O)n1` | AUC(0-inf): 5.81 µg·h/mL

###

ASSAY_OVERVIEW: Pharmacokinetics, single oral gavage, 2 formulations, Wistar and Sprague-Dawley rats
Type: in vivo
TEST_SETTINGS: male, Sprague-Dawley, rat, plasma, po, 75 mg/kg, Formulation 2, S-D (Male)
OUTCOME_MEASURE: AUC(0-t) (ng·h/mL)
Respond numerically; units are ng·h/mL and should not be typed.

Item: `Cc1cc(Cl)c(COc2cccc3c(-n4cc(F)cn4)cc(C)nc23)c(Cn2cccc(C#N)c2=O)n1` | AUC(0-t): 673

###

ASSAY_OVERVIEW: Pharmacokinetics, single oral gavage, 2 formulations, Wistar and Sprague-Dawley rats
Assay type: in vivo
TEST_SETTINGS: male, Wistar, rat, plasma, po, 75 mg/kg, Formulation 1, Wistar (Male)
OUTCOME_MEASURE: AUC(0-inf) (ng·h/mL)
Respond numerically; units are ng·h/mL and should not be typed.

Item: Cc1cc(Cl)c(COc2cccc3c(-n4cc(F)cn4)cc(C)nc23)c(Cn2cccc(C#N)c2=O)n1 [CFMQ] | AUC(0-inf): 282

###

ASSAY_OVERVIEW: Pharmacokinetics, single oral gavage, Yucatan mini-pig
Format: in vivo, female Yucatan Miniature Swine
TEST_SETTINGS: female, Yucatan, pig (minipig), plasma; PO 10 mg/kg, 1.0 hr; read-out: Average Concentration of HGT3711
OUTCOME_MEASURE: concentration at 1 hr (ng/mL)
Respond numerically; units are ng/mL and should not be typed.

Item: `Cc1cc(Cl)c(COc2cccc3c(-n4cc(F)cn4)cc(C)nc23)c(Cn2cccc(C#N)c2=O)n1` | concentration at 1 hr: 1560

###

ASSAY_OVERVIEW: Pharmacokinetics, single oral gavage, 2 formulations, Wistar and Sprague-Dawley rats
Assay type: in vivo
TEST_SETTINGS: male, Wistar, rat, plasma, po, 15 mg/kg, Formulation 2, Wistar (Male)
OUTCOME_MEASURE: Tmax (min)
Respond numerically; units are min and should not be typed.

Item: `Cc1cc(Cl)c(COc2cccc3c(-n4cc(F)cn4)cc(C)nc23)c(Cn2cccc(C#N)c2=O)n1` | Tmax: 49.8

###

ASSAY_OVERVIEW: Pharmacokinetics, single oral gavage, 2 formulations, Wistar and Sprague-Dawley rats
Format: in vivo
TEST_SETTINGS: female, Wistar, rat, plasma, po, 75 mg/kg, Formulation 1, Wistar (Female)
OUTCOME_MEASURE: Cmax (ng/mL)
Respond numerically; units are ng/mL and should not be typed.

Item: `Cc1cc(Cl)c(COc2cccc3c(-n4cc(F)cn4)cc(C)nc23)c(Cn2cccc(C#N)c2=O)n1` | Cmax: 2550
